Data provenance is ChEMBL document CHEMBL1909046.

Target: 5-hydroxytryptamine receptor 2C (Homo sapiens)
Sequence (P28335 whole entry): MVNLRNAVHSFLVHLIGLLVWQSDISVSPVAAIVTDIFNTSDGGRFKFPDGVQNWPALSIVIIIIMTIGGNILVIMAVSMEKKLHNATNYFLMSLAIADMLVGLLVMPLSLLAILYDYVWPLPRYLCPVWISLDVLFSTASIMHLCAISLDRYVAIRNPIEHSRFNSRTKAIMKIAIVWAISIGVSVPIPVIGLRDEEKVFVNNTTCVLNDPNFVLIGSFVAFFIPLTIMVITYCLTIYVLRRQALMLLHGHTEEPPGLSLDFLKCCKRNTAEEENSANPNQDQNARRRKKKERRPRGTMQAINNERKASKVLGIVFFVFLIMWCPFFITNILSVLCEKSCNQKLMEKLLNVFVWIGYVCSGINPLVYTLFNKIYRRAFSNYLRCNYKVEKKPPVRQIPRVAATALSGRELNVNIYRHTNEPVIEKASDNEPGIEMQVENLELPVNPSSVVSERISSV
Assay: DRUGMATRIX: Serotonin (5-Hydroxytryptamine) 5-HT2C radioligand binding (ligand: [3H] Mesulergine)
Format: cell membranes, CHO-K1, Membrane
Conditions: Not Active = under 50% inhibition at 10 µM; read-out: Ki
readoutLabel: Ki

Clc1ccc(COC(Cn2ccnc2)c2ccc(Cl)cc2Cl)c(Cl)c1 (centres undefined): 2.78 µM
CC(C)C[C@H]1C(=O)N2CCC[C@H]2[C@]2(O)O[C@](NC(=O)[C@@H]3C=C4c5cccc6[nH]cc(c56)C[C@H]4N(C)C3)(C(C)C)C(=O)N12: 0.077 µM
O=c1c(-c2ccc(O)cc2)coc2cc(O)cc(O)c12: 7.81 µM

Now examine the next entry.
-- ask Could you share which Ki value was measured for CN1CCCC(CN2c3ccccc3Sc3ccccc32)C1 (centres undefined) ?
-- reply 0.259 µM

---

target: Glycine receptor (Rattus norvegicus, UniProt P22771+P24524+P07727+P20781); type: cell membranes, Wistar, Spinal cord, Membrane; note: in other assays of this panel Not Active means under 50% inhibition at 10 µM
readoutLabel: IC50

CCc1ccc(CCOc2ccc(CC3SC(=O)NC3=O)cc2)nc1 (stereo not drawn) [PIOGLITAZONE]: Not Active
CC[C@H]1[C@@H]2C[C@H]3[C@@H]4N(C)c5ccccc5[C@]45C[C@@H]([C@@H]2[C@H]5O)N3[C@@H]1O [AJMALINE]: Not Active
C[C@]12C=CC(=O)C=C1CC[C@H]1[C@@H]3C[C@@H](O)[C@](O)(C(=O)CO)[C@@]3(C)C[C@H](O)[C@@]12F [TRIAMCINOLONE]: Not Active

---

test: DRUGMATRIX: ATPase, Na+/K+ enzyme inhibition (substrate: ATP); format: tissue-based, Sus scrofa, Heart; details: Not Active = under 50% inhibition at 10 µM
readoutLabel: Ki

# count of solved cases: 5
O=C(O)CCNC(=O)c1ccc(/N=N/c2ccc(O)c(C(=O)O)c2)cc1 [BALSALAZIDE]: Not Active
C[C@H]1[C@H](NC(=O)/C(=N\OC(C)(C)C(=O)O)c2csc(N)n2)C(=O)N1S(=O)(=O)O: Not Active
C[S+](C)[O-] [DIMETHYL SULFOXIDE]: Not Active
CN(C)C(=N)NC(=N)N: Not Active
CC(C)(C(=O)O)c1ccc(C(O)CCCN2CCC(C(O)(c3ccccc3)c3ccccc3)CC2)cc1 (stereo not given) [FEXOFENADINE]: Not Active

-- ask Could you share which Ki value was measured for NC(=O)c1cccnc1 [NIACINAMIDE] ?
-- reply Not Active

-- ask Could you share which Ki value was measured for `O=C(O)COc1ccc(C(=O)c2cccs2)c(Cl)c1Cl` ?
-- reply Not Active

-- ask Could you share which Ki value was measured for `C[C@]12C=CC(=O)C=C1CC[C@@H]1[C@@H]2C(=O)C[C@@]2(C)[C@H]1CC[C@]2(O)C(=O)CO` ?
-- reply Not Active

-- ask Could you share which Ki value was measured for CC1CCC(NC(=O)N(CCCl)N=O)CC1 (stereo not given) ?
-- reply Not Active

-- ask Could you share which Ki value was measured for `CN1C(=O)CN=C(c2ccccc2)c2cc([N+](=O)[O-])ccc21` ?
-- reply Not Active

-- ask Could you share which Ki value was measured for `CC(O)(P(=O)(O)O)P(=O)(O)O` ?
-- reply Not Active

-- ask Could you share which Ki value was measured for `O=C(O)CCCc1cccs1` ?
-- reply Not Active

---

biological target: UniProt P08913; format: cell membranes, Sf9, Membrane; conditions: read-out: Ki
Sequence (P08913 whole entry): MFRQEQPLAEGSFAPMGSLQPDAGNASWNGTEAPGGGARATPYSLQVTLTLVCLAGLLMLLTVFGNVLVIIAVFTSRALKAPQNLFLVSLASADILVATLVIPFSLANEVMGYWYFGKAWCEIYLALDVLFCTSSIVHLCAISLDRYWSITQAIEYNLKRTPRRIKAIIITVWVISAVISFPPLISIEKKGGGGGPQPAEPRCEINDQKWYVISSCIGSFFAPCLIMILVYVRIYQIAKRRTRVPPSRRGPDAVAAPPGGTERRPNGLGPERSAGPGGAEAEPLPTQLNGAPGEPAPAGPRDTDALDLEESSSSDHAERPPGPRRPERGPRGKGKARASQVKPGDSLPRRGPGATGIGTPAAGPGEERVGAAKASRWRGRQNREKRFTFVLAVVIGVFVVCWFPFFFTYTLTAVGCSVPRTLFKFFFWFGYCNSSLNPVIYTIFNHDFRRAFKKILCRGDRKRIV
readoutLabel: Ki

# count of solved cases: 3
CCCCCCCCNC(C)C(O)c1ccc(SC(C)C)cc1 (centres undefined): 759 nM
CC(C)C[C@H]1C(=O)N2CCC[C@H]2[C@]2(O)O[C@](NC(=O)[C@@H]3C=C4c5cccc6[nH]cc(c56)C[C@H]4N(C)C3)(C(C)C)C(=O)N12: 2.98 nM
CN1CCN(C(c2ccccc2)c2ccccc2)CC1: 582 nM

Now examine the next entry.
-- ask Could you share which Ki value was measured for Clc1ccc(COC(Cn2ccnc2)c2ccc(Cl)cc2Cl)c(Cl)c1 (centres undefined) ?
-- reply 1490 nM

---

target: Amine oxidase [flavin-containing] A (Homo sapiens, UniProt P21397); test: DRUGMATRIX: Monoamine Oxidase MAO-A enzyme inhibition (substrate: Kynuramine); parameters: species or system BTI-TN-5B1-4; details: Not Active = under 50% inhibition at 10 µM; read-out: IC50
Sequence (P21397 whole entry): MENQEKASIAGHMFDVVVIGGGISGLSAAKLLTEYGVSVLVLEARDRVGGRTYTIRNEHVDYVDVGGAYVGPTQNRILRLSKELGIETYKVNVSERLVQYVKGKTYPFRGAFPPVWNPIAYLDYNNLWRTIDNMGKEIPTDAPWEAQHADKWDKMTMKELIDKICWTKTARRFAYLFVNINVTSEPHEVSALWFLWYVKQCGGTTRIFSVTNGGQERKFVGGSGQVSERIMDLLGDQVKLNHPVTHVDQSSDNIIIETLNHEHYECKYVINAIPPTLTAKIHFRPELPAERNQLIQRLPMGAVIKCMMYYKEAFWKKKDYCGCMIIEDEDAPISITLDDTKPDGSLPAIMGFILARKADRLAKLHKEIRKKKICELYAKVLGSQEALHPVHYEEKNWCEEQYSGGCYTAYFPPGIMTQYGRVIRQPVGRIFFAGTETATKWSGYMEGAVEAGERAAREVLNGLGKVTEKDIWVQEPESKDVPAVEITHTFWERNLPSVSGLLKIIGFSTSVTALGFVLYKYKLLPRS
readoutLabel: IC50
Field: value (include unit after the number)

CCc1ccc(CCOc2ccc(CC3SC(=O)NC3=O)cc2)nc1 (stereo not drawn): 35100 nM
N=C(N)c1ccc(OCCCCCOc2ccc(C(=N)N)cc2)cc1: 793 nM

Now examine the next entry.
-- ask Lookup: IC50 / Amine oxidase [flavin-containing] A (Homo sapiens, UniProt P21397) / `Cc1cc(O)cc(C)c1Cl`
-- reply 1830 nM

---

target: Kappa-type opioid receptor (Homo sapiens, UniProt P41145); test: DRUGMATRIX: Opiate kappa (OP2, KOP) radioligand binding (ligand: [3H] Diprenorphine); type: cell membranes, HEK293, Membrane; conditions: Not Active = under 50% inhibition at 10 µM
Sequence (P41145 whole entry): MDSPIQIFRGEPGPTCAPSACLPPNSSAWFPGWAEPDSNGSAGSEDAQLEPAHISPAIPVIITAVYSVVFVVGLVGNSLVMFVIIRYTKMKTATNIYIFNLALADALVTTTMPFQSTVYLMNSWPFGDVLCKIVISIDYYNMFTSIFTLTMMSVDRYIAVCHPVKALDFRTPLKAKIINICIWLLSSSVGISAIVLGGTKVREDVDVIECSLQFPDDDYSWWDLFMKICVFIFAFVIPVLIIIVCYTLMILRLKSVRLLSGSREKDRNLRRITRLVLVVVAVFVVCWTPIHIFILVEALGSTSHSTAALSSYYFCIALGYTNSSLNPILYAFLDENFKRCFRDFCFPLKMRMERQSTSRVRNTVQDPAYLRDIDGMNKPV
readoutLabel: Ki

Clc1ccc(COC(Cn2ccnc2)c2ccc(Cl)cc2Cl)c(Cl)c1 (configuration not stated): 2.64 µM

-- ask Lookup: Ki / Kappa-type opioid receptor (Homo sapiens, UniProt P41145) / `Cc1c(O)cccc1C(=O)N[C@@H](CSc1ccccc1)[C@H](O)CN1C[C@H]2CCCC[C@H]2C[C@H]1C(=O)NC(C)(C)C`
-- reply 14.4 µM

---

assay: DRUGMATRIX: Potassium Channel [KATP] radioligand binding (ligand: [3H] Glyburide); type: cell membranes, Membrane; conditions: hit-t15; Not Active = under 50% inhibition at 10 µM; read-out: IC50
readoutLabel: pIC50
Lab note: report pIC50 as minus log10 of the concentration in molar units, number only.

-- ask Could you share which pIC50 value was measured for CCC1=C(C)CN(C(=O)NCCc2ccc(S(=O)(=O)NC(=O)N[C@H]3CC[C@H](C)CC3)cc2)C1=O [GLIMEPIRIDE] ?
-- reply 7.00

---

target: UniProt P33261; details: bti-tn-5b1-4
Sequence (P33261 whole entry): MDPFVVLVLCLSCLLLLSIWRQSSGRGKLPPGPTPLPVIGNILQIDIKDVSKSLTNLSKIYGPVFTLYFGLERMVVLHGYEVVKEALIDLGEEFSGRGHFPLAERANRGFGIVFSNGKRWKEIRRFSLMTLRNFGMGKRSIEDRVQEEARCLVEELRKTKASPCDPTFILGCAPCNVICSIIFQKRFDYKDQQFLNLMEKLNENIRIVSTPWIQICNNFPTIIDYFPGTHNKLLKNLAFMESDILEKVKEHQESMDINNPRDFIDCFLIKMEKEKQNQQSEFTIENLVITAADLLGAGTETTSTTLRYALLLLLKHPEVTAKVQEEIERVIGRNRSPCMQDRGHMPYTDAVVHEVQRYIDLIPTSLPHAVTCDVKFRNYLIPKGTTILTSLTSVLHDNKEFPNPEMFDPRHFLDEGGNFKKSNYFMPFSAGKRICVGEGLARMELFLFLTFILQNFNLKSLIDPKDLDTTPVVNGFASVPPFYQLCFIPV
readoutLabel: Ki

# count of solved cases: 5
CC(C)(C)NCC(O)COc1cccc2c1CC(O)C(O)C2 (stereo not given): Not Active
Nc1ccc(S(=O)(=O)NC(=O)c2ccccc2)cc1 [SULFABENZAMIDE]: Not Active
CN(C)C(=N)NC(=N)N: Not Active
O=C(O)COc1ccc(C(=O)c2cccs2)c(Cl)c1Cl: Not Active
C[N+](C)(C)C[C@H](O)CC(=O)[O-]: Not Active

Now examine the next entry.
-- ask Could you share which Ki value was measured for CN(C)C(=O)Oc1cccc([N+](C)(C)C)c1.[Br-] [NEOSTIGMINE BROMIDE] ?
-- reply Not Active

---

target: D(3) dopamine receptor (Homo sapiens); test: DRUGMATRIX: Dopamine D3 radioligand binding (ligand: [3H] Spiperone); type: cell membranes, CHO, Membrane; conditions: cho; read-out: IC50
Sequence (P35462 whole entry): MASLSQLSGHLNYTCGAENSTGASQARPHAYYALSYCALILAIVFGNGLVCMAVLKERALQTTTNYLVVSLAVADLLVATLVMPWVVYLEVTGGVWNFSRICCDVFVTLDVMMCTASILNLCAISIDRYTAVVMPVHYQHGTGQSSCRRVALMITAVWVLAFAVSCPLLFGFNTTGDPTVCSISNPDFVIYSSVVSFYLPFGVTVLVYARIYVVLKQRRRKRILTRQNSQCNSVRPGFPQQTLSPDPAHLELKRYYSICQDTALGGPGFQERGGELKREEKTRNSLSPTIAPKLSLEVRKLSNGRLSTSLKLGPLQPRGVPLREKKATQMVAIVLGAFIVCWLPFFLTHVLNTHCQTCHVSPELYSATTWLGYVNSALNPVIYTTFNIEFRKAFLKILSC
readoutLabel: IC50 (µM)
Give the value, in units of µM, as a plain number.

-- ask Lookup: IC50 / D(3) dopamine receptor (Homo sapiens) / `TRANSPLATIN`
-- reply 3.32

---

molecular target: Cytochrome P450 2D6 (Homo sapiens); details: bti-tn-5b1-4; note: in other assays of this panel Not Active means under 50% inhibition at 10 µM
Sequence (P10635 whole entry): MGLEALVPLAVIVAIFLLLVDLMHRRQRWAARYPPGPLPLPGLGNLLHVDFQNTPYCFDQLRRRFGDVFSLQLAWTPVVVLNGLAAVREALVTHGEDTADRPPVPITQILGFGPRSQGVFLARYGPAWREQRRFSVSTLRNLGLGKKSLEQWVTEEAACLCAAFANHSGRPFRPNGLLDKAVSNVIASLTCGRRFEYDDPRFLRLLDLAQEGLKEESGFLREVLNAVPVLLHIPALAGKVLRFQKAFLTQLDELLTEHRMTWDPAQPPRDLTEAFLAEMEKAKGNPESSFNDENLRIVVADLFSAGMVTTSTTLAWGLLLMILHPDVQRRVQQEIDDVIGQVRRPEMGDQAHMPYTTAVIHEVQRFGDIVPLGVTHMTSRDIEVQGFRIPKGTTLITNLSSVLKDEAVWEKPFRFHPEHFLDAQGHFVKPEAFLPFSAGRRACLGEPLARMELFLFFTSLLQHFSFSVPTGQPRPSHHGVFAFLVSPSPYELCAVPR
readoutLabel: IC50

# count of solved cases: 5
CCCNC(=O)NS(=O)(=O)c1ccc(Cl)cc1 [CHLORPROPAMIDE]: Not Active
CC(=O)OCC(=O)[C@@]1(O)CC[C@H]2[C@@H]3CCC4=CC(=O)CC[C@]4(C)[C@@]3(F)[C@@H](O)C[C@@]21C [FLUDROCORTISONE ACETATE]: Not Active
CCOC(=O)c1ncn2c1CN(C)C(=O)c1cc(F)ccc1-2 [FLUMAZENIL]: Not Active
O=C1C[C@@H]2OCC=C3CN4CC[C@]56c7ccccc7N1[C@H]5[C@H]2[C@H]3C[C@H]46 [STRYCHNINE]: Not Active
CCN(CC)CCNC(=O)c1ccc(N)cc1 [PROCAINAMIDE]: Not Active

-- ask Could you share which IC50 value was measured for CC(=O)OC[C@H]1O[C@@H](n2ncc(=O)[nH]c2=O)[C@H](OC(C)=O)[C@@H]1OC(C)=O [AZARIBINE] ?
-- reply Not Active

-- ask Could you share which IC50 value was measured for O=C(O)c1ccccc1O [SALICYLIC ACID] ?
-- reply Not Active

-- ask Could you share which IC50 value was measured for Cc1ccc(C(=O)c2ccc(CC(=O)O)n2C)cc1 [TOLMETIN] ?
-- reply Not Active
